# SYSTEM: XIAP BIR3 (Homo sapiens)
# Construct: covering amino acids 241 to 356; XIAP BIR3
# Sequence (P98170 241-356): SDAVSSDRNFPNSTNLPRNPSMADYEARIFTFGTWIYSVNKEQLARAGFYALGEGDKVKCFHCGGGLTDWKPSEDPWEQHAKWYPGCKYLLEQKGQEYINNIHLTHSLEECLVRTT
# TEST_SUMMARY: XIAP BIR3 binding assay (DELFIA), displacement of SMAC peptide
# REPORTED_CONDITIONS: GST-fusion BIR3 domain (aa 241 to 356) 10 nM, SMAC peptide 10 nM; activity of the (S)-isomers
log10(IC50) overview
MEASURED_ATTRIBUTE: log10(IC50) (log10 of the value in nM)

COMPOUND	READOUT_NUMBER
CNC(C)C(=O)Nc1ccc(-c2c(C)nc3ccccn23)c(C#Cc2ccnc3c(F)cccc23)n1 (centres unmarked)	2.30
CNC(C)C(=O)Nc1ccc(-c2c(C)ccc3c2cnn3C)c(C#Cc2ccc3ncccc3c2)n1 (centres unmarked)	2.73
CNC(C)C(=O)Nc1ccc(-c2cccc3[nH]ncc23)c(C#Cc2ccccc2)n1 (centres unmarked)	2.19
CNC(C)C(=O)Nc1ccc(-c2c(C)nc3ccccn23)c(C#Cc2cc3ccccc3o2)n1 (centres unmarked)	1.82
CC(N)C(=O)Nc1ccc(-c2ccccc2)c(C#Cc2ccccc2)n1 (centres unmarked)	3.00
CC(N)C(=O)Nc1cccc(C#Cc2ccoc2)n1 (centres unmarked)	3.48
CNC(C)C(=O)Nc1ccc(-c2c(F)ccc3ccc(C)nc23)c(C#Cc2ccccc2)n1 (centres unmarked)	3.26
CNC(C)C(=O)Nc1ccc(-c2cncc3ccccc23)c(C#Cc2ccc3occc3c2)n1 (centres unmarked)	2.74
CC(N)C(=O)Nc1cc2ccccc2c(C#Cc2ccsc2)n1 (centres unmarked)	2.88
CNC(C)C(=O)Nc1cc(Cl)c(-c2cncnc2)c(C#Cc2ccccc2)n1 (centres unmarked)	2.68
CNC(C)C(=O)Nc1ccc(-c2cnoc2C)c(C#Cc2ccccc2)n1 (centres unmarked)	2.11
CC(N)C(=O)Nc1cc2ccccc2c(C#Cc2cncs2)n1 (centres unmarked)	3.28
CNC(C)C(=O)Nc1ccc(-c2c(C)nc3ccccn23)c(C#Cc2ccc(C#N)c(C)c2)n1 (centres unmarked)	2.15
CNC(C)C(=O)Nc1ccc(-c2c(-c3ccncc3)nc3cc(C)ccn23)c(C#Cc2ccccc2)n1 (centres unmarked)	1.20
CC(N)C(=O)Nc1ccc(-c2ccc(-c3ccc(F)cc3)nc2)c(C#Cc2ccccc2)n1 (centres unmarked)	3.03
CNC(C)C(=O)Nc1ccc(-c2c(C)nc3ccccn23)c(C#Cc2ccc3c(c2)COC3)n1 (centres unmarked)	2.06
CC(N)C(=O)Nc1cccc(C#Cc2cscn2)n1 (centres unmarked)	3.86

###

# SYSTEM: XIAP BIR3 (Homo sapiens)
# Construct: covering amino acids 241 to 356; XIAP BIR3
# TEST_SUMMARY: XIAP BIR3 binding assay (DELFIA), displacement of SMAC peptide
# REPORTED_CONDITIONS: GST-fusion BIR3 domain (aa 241 to 356) 10 nM, SMAC peptide 10 nM; activity of the (S)-isomers

COMPOUND	SYSTEM	IC50
CNC(C)C(=O)Nc1ccc(-c2cccc(NC(C)=O)c2)c(C#Cc2ccccc2)n1 (stereo not shown)	XIAP BIR3 (Homo sapiens)	287 nM
CNC(C)C(=O)Nc1ccc(-c2c(C)nc3ccccn23)c(C#Cc2ccc3ncsc3c2)n1 (stereo not shown)	XIAP BIR3 (Homo sapiens)	94 nM
CNC(C)C(=O)Nc1ccc(-c2c(C)nc3ccccn23)c(C#Cc2ccc3c(c2)oc(=O)n3C)n1 (stereo not shown)	XIAP BIR3 (Homo sapiens)	300 nM
CC(N)C(=O)Nc1cccc(C#Cc2ccc(F)cc2F)n1 (stereo not shown)	XIAP BIR3 (Homo sapiens)	2610 nM
